testDetails: yeast display, Sf9 membrane polyspecificity reagent, FACS + sequencing; frameworks hold sequencing errors
readoutKind: polyreactivity (PSR sort gate)

Here's what some known entries look like.
QVHLVESGGGLVQAGGSLRLSCAASGRIFVKYAMGCYRQAPGKERELVAAIRSGGSTYYADSVKGRFTISRDNAKNTVYLQMNSLKPEDTAVYYCAADRNKHHYYTEPYDYWGQGTQVTVSS | low polyreactivity
QVQLQESGGGLEQAGGSLRMSCAASGTIFSEANMGWYRQAPGKERELVATIGQGSTTNYADSVKGRFTISRDNAKNTVYLQMNSLKPEETPVYYCAVVTVDPVGFVYWGQGTQVTVSS | low polyreactivity
QVQLEESGGAIVQAAGSLRLSCAASGLIFAWYALGWYRPAPGKERELVATISWNGDRTYYADSVKGRFTISRDNAKNTVYLQMNSLKPEDTAVYYCAARFGSGFNYWGKGTQVTVSS | high polyreactivity
QVQLVESGGGLVQAGGSLRLSCAASGITFYYYAKGWYRQAPGKEREFVAAINWSGTSTYYADSVKGRFTISRDNAKNTVYLQMNSLKPEDTAVYYCNAERGRSFWWAYDYWGQGTQVTVSS | low polyreactivity
QVQLVESGGGLVQAGGSLRLSCAASGTFYKYSMGWYRQAPGKERELVAAISWRGGRTYADSVKGRFTISRDNAKNTVYLQMNSLKPEDTAVYYCNKRFYPEHYYWGQGTQVTVSS | high polyreactivity
QVQLVESGGGLVQAGGSLRLSCAASGFTFDKNTMGWYRQAPGKERELVAAITRGGGSTYYADSVKGRFTISRDNAKNTVYLQMNSLKPEDTAVYYCAARYWTKRYRLLDYWGQGTQVTVSS | high polyreactivity
QVQLVESGGGLVQAGGSLRLSCAASGRTFSPYAMGWYRQAPGKERDLVAAINGGGGTTYYADSVKGRFTISRDNAKNTVYLQMNSLKPEDTAVYYCAAGYNYTSYADLDYWGQGTQVTVSS | low polyreactivity
QVQLVESGGGLVQAGGSLRLSCAASGSTFWFNAMGWYRQAPGKERELVAAIDSNTGSTSYADSVKGRFTISRDNAKNTVYLQMNSLIPEDTAVYYCNADYDFAKDRGDYWGQGTQVTVSS | low polyreactivity
QVQLVESGGGLVKAGGSLRLSCAASGRIFYWYALGWYRQAPGKEREFVAVISQGGGSTRYADSVKGRFTISRDNAKNTVYLHMNSLKPEDTAVYYCAASHSRWRQGYGYWGQGTQVTVSS | high polyreactivity
QVQLVESGGGLVQAGGSLRLSCAASGRIFYNNVMGWYRQAPGKERELVAAISGNGGSTYYADSVKGRFTISRDNAKNTVYLQMNSLKPEDTAVYYCAKGSHSYLISTGDYWGQGTQVTVSS | low polyreactivity

// switching to the query sequence
stdin: Look at this sequence and give its reported polyreactivity (PSR sort gate). `QVQLVESGGGLVQAGGSLRLSCAASGRIFIVNAMGWYRQAPGKERELVAAISYRGGSTYYADSVKGRFTISRDNAKNTVYLQMNSLKPEDTAVYYCNTDGYIYRYRFDYWGQGTQVTVSS`
stdout: low polyreactivity

###

testDetails: yeast display, Sf9 membrane polyspecificity reagent, FACS + sequencing; frameworks hold sequencing errors
readoutKind: polyreactivity (PSR sort gate)

Here's what some known entries look like.
QVQLVESGGGLVQAGGSLRLSCAASGSIFFGYAMGWYRQAPGKERELVAGISSNGGTTYYADSVKGRFTISRDHANNTVNLQMNSQKPEDTAVYDCATQYYARGYLYDYWGQGTQVTVSS | low polyreactivity
QVQLVESGGGLVQAGGSLRLSCDASGSIFKLNAMGWYRQAPGKERELVAAITSSGDSTYYADSVKGRFTISRDNAKNTVYLQMNSLKPEDTAVFYCNREDAGIMDYWGQGTHVTVSS | low polyreactivity
QVQLVESGGGLVQAGGSLRLSCAASGITFQYYAMGWYRQAPGKERELVAAITKRGGSTYYADSVKGRFTISRDNAKNTVYLQMTSLKPEETAVYYCAADLGGNSRLDYWGQGTQVTVSS | high polyreactivity
QVQLVESGGRLVQAGGSLRLSCAASGFIFSRYAMGWSRQAPGKERELVAAISRGGSTNYADSVMGRFTISRDNAKNTVYLQMNSLKPEDTAVYYCAVRQIVRYYYWGQGTQVTVSS | high polyreactivity
QVQLEESGGGLVQAGGSLRLSCAASGGTFYAYAMGWYRQAPGKERELVAAITRSGGRTYYADSVKGRFTISRDNAKNTVYLQMNSLKPEDTAVYYCAADPHHYSGLDYWGQGTQVTVSS | low polyreactivity

stdin: Look at this sequence and give its reported polyreactivity (PSR sort gate). `QVQLVESGGGLVQAGGSLRLSCAASGSTIRYYAMGWYRQAPGKERELVAAISYGGGITNYADSVKGRFTISRDNAKNTVYLQMNSLKPEDTAVYCCAAYYRITRYDYWGQGTQVTVSS`
stdout: high polyreactivity

stdin: Now the same for `QVQLVESGGGLVQAGGSLRLSCAASGSTFRKNAMGWYRQAPGKERELVAAITYSGGGTYYADSVKGRFTISRDNAKNTVYLQMNSLKPEDTAVYYCAAERNKYAPYYYWGQGTQVTVSS`
stdout: high polyreactivity

stdin: Now the same for `QVQLVESGGRLVQAGGSLRLSCAASGLIFADYTMGWYRQAPGKERELVAVITDGDSTYYADSVKGRFTISRDNAKNTVYLQMNSLKPEDTAVYYCAARSAILKSGYLMDYWGQGTQVTVSS`
stdout: low polyreactivity

stdin: Now the same for `QVQLVESGGGLVQAGGSLRLSCAASGRTGSYAMGWYRQAPGQERELVAAISRRGANTYYADSVKGRFTISRDNAKNTVYLQMNSLKPEVTAVYYCAVPHLYSRVEYDYWGQGSQVTVSS`
stdout: high polyreactivity

stdin: Now the same for `QVHLVESGGGLVQAGGSLRLSCAASGRISKLYAMGWYRQAHGKERDLVAAISSGGSTYYADSVKGRFTISRDNAKNTVYLQMNSLKPEDTAVYYCAVTQVMQYGIPYSYTRDYWGQGTQVTVSS`
stdout: low polyreactivity

stdin: Now the same for `QVQLVESGGGLVQAGGSLRLSCAASGFTLYYYAMGWYRQAPGKERELVAAISTRGGRTYYADSVKGRFTISRDNAKNTVYLQINSLKPEDTAVYYCAAAFSLKSLNTRWTWSRYYYWGQGTQVTVSS`
stdout: high polyreactivity
